# system_under_test: fusion of mutant FKBP12 to nanoluciferase (Homo sapiens (Human), UniProt P62942+Q96SW2, F36V)
# assay_procedure: FKBP Dual Luciferase Assay (mutant FKBP12, 36V)
# Format: cell-based
# condition_description: FKBP 36V, 4 hours; read-out: DC50 (nM) FKBP 36V
measurement_type: DC50 (nM)

Guide cases for DC50, answers given:
CC[C@H](C(=O)N1CCCC[C@H]1C(=O)OC(CCc1ccc(OC)c(OC)c1)c1cccc(OCC(=O)NCCCOCCCNC(=O)COc2cccc3c2C(=O)N(C2CCC(=O)NC2=O)C3=O)c1)c1cc(OC)c(OC)c(OC)c1 (stereo partly shown) ... 69
CC[C@H](C(=O)N1CCCC[C@H]1C(=O)O[C@H](CCc1ccc(OC)c(OC)c1)c1cccc(OCC(=O)NCCOCCOc2cccc3c2C(=O)N(C2CCC(=O)NC2=O)C3=O)c1)c1cc(OC)c(OC)c(OC)c1 (stereo partly shown) ... 1.7

1. CC[C@H](C(=O)N1CCCC[C@H]1C(=O)O[C@H](CCc1ccc(OC)c(OC)c1)c1cccc(OCC(=O)NCCCCNC(=O)COc2cccc3c2C(=O)N(C2CCC(=O)NC2=O)C3=O)c1)c1cc(OC)c(OC)c(OC)c1 (stereo partly shown)
2. CC[C@H](C(=O)N1CCCC[C@H]1C(=O)O[C@H](CCc1ccc(OC)c(OC)c1)c1cccc(OCC(=O)NCCOCCOCCOc2cccc3c2C(=O)N(C2CCC(=O)NC2=O)C3=O)c1)c1cc(OC)c(OC)c(OC)c1 (stereo partly shown)
Enquiry: I need your help: which of the pair 1 , 2 has higher DC50? Mark your answer with the label of the selected entry.
Return: 2

---

# system_under_test: IKZF1 adjoined to nanoluciferase (Nluc) (Homo sapiens (Human), UniProt Q13422)
# assay_procedure: IKZF1 Dual Luciferase Assay
# Assay type: cell-based
# condition_description: 4 hours; read-out: Nluc/Fluc IKZF1 IC50
measurement_type: DC50

Guide cases for DC50, answers given:
Cc1cccc2c1C(=O)N(C1CCC(=O)NC1=O)C2=O (stereo not drawn) ... 0.111 µM
O=C1CCC(N2C(=O)c3ccc(C(=O)O)cc3C2=O)C(=O)N1 (stereo not drawn) ... > 50 µM
Cc1nc2ccccc2c(=O)n1C1CCC(=O)NC1=O (stereo not drawn) ... 7.61 µM
O=C1CCC(N2C(=O)c3ccc(NCc4ccccc4)cc3C2=O)C(=O)N1 (stereo not drawn) ... > 50 µM
O=C1CCC(N2C(=O)c3cccc([N+](=O)[O-])c3C2=O)C(=O)N1 (stereo not drawn) ... > 50 µM

Enquiry: Using known records, supply DC50 for O=C1CCC(N2C(=O)c3ccc(F)cc3C2=O)C(=O)N1 (stereo not drawn)
Return: > 50 µM

Enquiry: Using known records, supply DC50 for O=C1CCC(N2C(=O)c3ccc(C(=O)NCc4ccccc4)cc3C2=O)C(=O)N1 (stereo not drawn)
Return: > 50 µM

Enquiry: Using known records, supply DC50 for O=C1CCC(N2C(=O)c3cccc(F)c3C2=O)C(=O)N1 (stereo not drawn)
Return: > 50 µM

Enquiry: Using known records, supply DC50 for O=C1CCC(N2C(=O)c3ccc([N+](=O)[O-])cc3C2=O)C(=O)N1 (stereo not drawn)
Return: > 50 µM

---

# system_under_test: BRD4 adjoined to nanoluciferase (Nluc) (Homo sapiens (Human), UniProt O60885+Q96SW2)
# assay_procedure: BRD4 Dual Luciferase Assay
# Assay type: cell-based
# condition_description: concentration at Emax
measurement_type: Conc@Emax (µM)

Cc1sc2c(c1C)C(c1ccc(Cl)cc1)=N[C@@H](CC(=O)NCCOCCOc1cccc3c1C(=O)N(C1CCC(=O)NC1=O)C3=O)c1nnc(C)n1-2 (stereo partly drawn) ... 0.5
CC[C@@H]1C(=O)N(C)c2cnc(Nc3ccc(C(=O)NCCCOCCOCCOCCCNC(=O)COc4cccc5c4C(=O)N(C4CCC(=O)NC4=O)C5=O)cc3OC)nc2N1C1CCCC1 (stereo partly drawn) ... 50
CC[C@@H]1C(=O)N(C)c2cnc(Nc3ccc(C(=O)NCCCCCCNC(=O)COc4cccc5c4C(=O)N(C4CCC(=O)NC4=O)C5=O)cc3OC)nc2N1C1CCCC1 (stereo partly drawn) ... 0.5

I. Cc1sc2c(c1C)C(c1ccc(Cl)cc1)=N[C@@H](CC(=O)NCCCCCCOc1cccc3c1C(=O)N(C1CCC(=O)NC1=O)C3=O)c1nnc(C)n1-2 (stereo partly drawn)
II. Cc1sc2c(c1C)C(c1ccc(Cl)cc1)=N[C@@H](CC(=O)NCCOCCOCCNC(=O)COc1cccc3c1C(=O)N(C1CCC(=O)NC1=O)C3=O)c1nnc(C)n1-2 (stereo partly drawn)
III. Cc1sc2c(c1C)C(c1ccc(Cl)cc1)=N[C@@H](CC(=O)NCCCCOc1cccc3c1C(=O)N(C1CCC(=O)NC1=O)C3=O)c1nnc(C)n1-2 (stereo partly drawn)
Enquiry: Please list these molecules in decreasing order of Conc@Emax. Provide the ranking by listing each label in its place in the requested order.
Return: II, I, III
(II: 5 µM, I: 0.05 µM, III: 0.001581 µM)

---

# system_under_test: CRBN-DDB1/BRD4 (Homo sapiens (Human), UniProt O60885+Q96SW2)
# assay_procedure: CRBN-DDB1/BRD4 Dimerization Assay;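 note: AlphaScreen proximity signal between GST-tagged BRD4 and CRBN-DDB1 with glutathione donor and nickel chelate acceptor beads, read after 1 hr compound incubation at room temperature, values from Gaussian curve fit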
# Type: binding
# condition_description: Gaussian fit of dimerization signal
measurement_type: Dimer Amplitude

Guide cases for Dimer Amplitude, answers given:
Cc1c(CC#N)sc2c1C(c1ccc(Cl)cc1)=N[C@@H](CC(=O)NCCCCNC(=O)COc1cccc3c1C(=O)N(C1CCC(=O)NC1=O)C3=O)c1nnc(C)n1-2 (stereo partly shown) [dBET19] ... 1722
CC[C@@H]1C(=O)N(C)c2cnc(Nc3ccc(C(=O)NCCCOCCOCCOCCCNC(=O)COc4cccc5c4C(=O)N(C4CCC(=O)NC4=O)C5=O)cc3OC)nc2N1C1CCCC1 (stereo partly shown) [dBET10] ... 12824

I. Cc1sc2c(c1C)C(c1ccc(Cl)cc1)=N[C@@H](CC(=O)NCCCCCCOc1cccc3c1C(=O)N(C1CCC(=O)NC1=O)C3=O)c1nnc(C)n1-2 (stereo partly shown) [dBET29]
II. COc1cc(C(=O)NCCCOCCOCCOCCCNC(=O)COc2cccc3c2C(=O)N(C2CCC(=O)NC2=O)C3=O)ccc1Nc1ncc2c(n1)N(C)c1ccccc1C(=O)N2C (stereo not shown) [dBET12]
Enquiry: // select label with min value of measured Dimer Amplitude from [ I , II ] Mark your answer with the label of the selected entry.
Return: II

A. Cc1c(C(=O)NCCCCCCCCNC(=O)COc2cccc3c2C(=O)N(C2CCC(=O)NC2=O)C3=O)sc2c1C(c1ccc(Cl)cc1)=N[C@@H](CC(=O)NCCCN1CCN(C)CC1)c1nnc(C)n1-2 (stereo partly shown) [dBET31]
B. COc1cc(C(=O)NCCCCNC(=O)COc2cccc3c2C(=O)N(C2CCC(=O)NC2=O)C3=O)ccc1Nc1ncc2c(n1)N(C)c1ccccc1C(=O)N2C (stereo not shown) [dBET11]
Enquiry: // select label with min value of measured Dimer Amplitude from [ A , B ] Mark your answer with the label of the selected entry.
Return: B

---

# Tested on: 797
# assay_procedure: Cell IC50, 797 (Table 4-1)
# Assay type: cell-based
# condition_description: read-out: IC50 (nM) 797; 797 cells
measurement_type: IC50 (nM)
API: value field is a number in nM; no unit string.

Enquiry: Using known records, supply IC50 for COc1cc(C(=O)NCCCCCCCCNC(=O)COc2cccc3c2C(=O)N(C2CCC(=O)NC2=O)C3=O)ccc1Nc1ccc2c(n1)N(C1CCCC1)[C@H](C)C(=O)N2C (stereo partly shown)
Return: 1450

---

# system_under_test: fusion of mutant FKBP12 to nanoluciferase (Homo sapiens (Human), UniProt P62942+Q96SW2, F36V)
# assay_procedure: FKBP Dual Luciferase Assay (mutant FKBP12, 36V);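 note: cells exposed to rising degrader concentrations, FKBP12 fusion level read as NLuc/FLuc signal ratio, lower ratio means more degradation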
# Type: cell-based
# condition_description: FKBP 36V, 4 hours; read-out: DC50 (nM) FKBP 36V
measurement_type: DC50 (nM)

Guide cases for DC50, answers given:
CCC(C)(C)C(=O)C(=O)N1CCCC[C@H]1C(=O)O[C@H](CCc1ccc(OC)c(OC)c1)c1cccc(NC(=O)CCC(=O)NCCCCNC(=O)COc2cccc3c2C(=O)N(C2CCC(=O)NC2=O)C3=O)c1 (some centres unmarked) [dFKBP-1] ... 153
CC[C@H](C(=O)N1CCCC[C@H]1C(=O)OC(CCc1ccc(OC)c(OC)c1)c1cccc(OCC(=O)NCCCCCCOc2cccc3c2C(=O)N(C2CCC(=O)NC2=O)C3=O)c1)c1cc(OC)c(OC)c(OC)c1 (some centres unmarked) [dFKBP*-13] ... 1.2

a. CC[C@H](C(=O)N1CCCC[C@H]1C(=O)OC(CCc1ccc(OC)c(OC)c1)c1cccc(OCC(=O)NCCCCCCCC(=O)Nc2cccc3c2C(=O)N(C2CCC(=O)NC2=O)C3=O)c1)c1cc(OC)c(OC)c(OC)c1 (some centres unmarked) [dFKBP*-20]
b. CC[C@H](C(=O)N1CCCC[C@H]1C(=O)OC(CCc1ccc(OC)c(OC)c1)c1cccc(OCC(=O)NCCCCC(=O)Nc2cccc3c2C(=O)N(C2CCC(=O)NC2=O)C3=O)c1)c1cc(OC)c(OC)c(OC)c1 (some centres unmarked) [dFKBP*-16]
c. CC[C@H](C(=O)N1CCCC[C@H]1C(=O)OC(CCc1ccc(OC)c(OC)c1)c1cccc(OCC(=O)NCCCCCCCCCCOc2cccc3c2C(=O)N(C2CCC(=O)NC2=O)C3=O)c1)c1cc(OC)c(OC)c(OC)c1 (some centres unmarked) [dFKBP*-14]
Enquiry: Please list these molecules in decreasing order of DC50. Provide the ranking by listing each label in its place in the requested order.
Return: b, c, a
